Target: T1, monkey C5-mmh (monkey, UniProt P01031 19-1676 (human entry), limits assumed)
T1 construct: Expressed with a C-terminal myc-myc-hexahistidine tag
T1 chain: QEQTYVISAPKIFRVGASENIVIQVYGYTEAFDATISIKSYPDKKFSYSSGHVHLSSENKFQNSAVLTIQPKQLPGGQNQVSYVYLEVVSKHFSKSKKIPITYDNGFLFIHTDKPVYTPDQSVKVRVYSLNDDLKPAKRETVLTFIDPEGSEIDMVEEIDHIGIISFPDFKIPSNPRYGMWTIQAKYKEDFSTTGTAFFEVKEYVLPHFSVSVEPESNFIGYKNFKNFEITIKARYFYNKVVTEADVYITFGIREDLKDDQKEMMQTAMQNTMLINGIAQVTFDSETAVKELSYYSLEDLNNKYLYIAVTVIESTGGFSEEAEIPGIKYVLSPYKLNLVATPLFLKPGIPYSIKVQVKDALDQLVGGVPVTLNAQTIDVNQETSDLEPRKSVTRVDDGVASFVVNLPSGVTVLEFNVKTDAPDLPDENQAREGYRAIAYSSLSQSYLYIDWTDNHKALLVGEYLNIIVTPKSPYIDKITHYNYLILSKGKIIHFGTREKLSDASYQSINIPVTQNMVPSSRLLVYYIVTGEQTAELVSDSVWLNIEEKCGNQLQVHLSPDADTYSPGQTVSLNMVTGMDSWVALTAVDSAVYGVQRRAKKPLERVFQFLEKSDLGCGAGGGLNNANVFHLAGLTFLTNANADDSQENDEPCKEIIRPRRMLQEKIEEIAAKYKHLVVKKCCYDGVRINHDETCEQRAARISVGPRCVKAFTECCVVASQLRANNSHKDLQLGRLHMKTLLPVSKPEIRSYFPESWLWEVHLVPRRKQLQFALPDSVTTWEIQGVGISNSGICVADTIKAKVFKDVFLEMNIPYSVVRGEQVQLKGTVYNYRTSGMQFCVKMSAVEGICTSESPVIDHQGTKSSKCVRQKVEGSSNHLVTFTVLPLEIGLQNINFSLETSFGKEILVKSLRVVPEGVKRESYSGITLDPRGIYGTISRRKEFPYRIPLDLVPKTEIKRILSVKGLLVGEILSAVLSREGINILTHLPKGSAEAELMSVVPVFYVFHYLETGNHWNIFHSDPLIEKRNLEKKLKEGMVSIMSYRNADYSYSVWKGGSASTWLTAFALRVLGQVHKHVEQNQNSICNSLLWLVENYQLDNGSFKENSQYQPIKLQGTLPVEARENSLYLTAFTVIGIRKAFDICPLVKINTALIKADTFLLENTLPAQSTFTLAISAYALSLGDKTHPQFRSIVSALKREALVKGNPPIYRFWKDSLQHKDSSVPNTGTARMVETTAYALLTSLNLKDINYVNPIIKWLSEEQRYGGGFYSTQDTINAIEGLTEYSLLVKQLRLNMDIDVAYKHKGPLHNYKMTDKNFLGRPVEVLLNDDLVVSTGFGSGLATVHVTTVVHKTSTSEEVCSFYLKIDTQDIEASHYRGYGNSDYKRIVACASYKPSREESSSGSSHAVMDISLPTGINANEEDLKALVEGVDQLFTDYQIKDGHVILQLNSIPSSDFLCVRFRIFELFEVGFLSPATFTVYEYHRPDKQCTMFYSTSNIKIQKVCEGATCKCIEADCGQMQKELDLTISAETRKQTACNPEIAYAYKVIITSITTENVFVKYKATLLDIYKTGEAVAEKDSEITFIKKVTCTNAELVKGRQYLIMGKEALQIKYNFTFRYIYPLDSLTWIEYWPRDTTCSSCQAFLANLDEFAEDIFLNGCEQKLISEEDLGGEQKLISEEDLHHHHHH
Assay: SPR, mAb captured by anti-hFc, 25C
measured_quantity: koff (s⁻¹)
Answer format: numeric, s⁻¹ implied, no suffix.

Fill in the blank: the reported koff of H4H11683N (antibody, human IgG4, V domains shown, also called H2M11683N) VH: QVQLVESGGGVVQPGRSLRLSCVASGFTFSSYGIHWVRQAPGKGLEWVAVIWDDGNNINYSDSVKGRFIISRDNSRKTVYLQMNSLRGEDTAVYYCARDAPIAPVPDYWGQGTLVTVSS VL: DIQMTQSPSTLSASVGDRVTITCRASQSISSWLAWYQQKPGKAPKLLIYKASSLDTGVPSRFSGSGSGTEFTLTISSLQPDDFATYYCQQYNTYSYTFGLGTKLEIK is ____.
0.000247

Sample H4H11686N (antibody, human IgG4, V domains shown, also called H2M11686N) VH: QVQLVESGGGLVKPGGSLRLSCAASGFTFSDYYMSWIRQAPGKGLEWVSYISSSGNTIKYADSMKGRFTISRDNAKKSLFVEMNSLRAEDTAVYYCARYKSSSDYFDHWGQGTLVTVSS VL: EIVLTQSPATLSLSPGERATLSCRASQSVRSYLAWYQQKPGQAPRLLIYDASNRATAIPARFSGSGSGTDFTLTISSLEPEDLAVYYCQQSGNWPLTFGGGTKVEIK — what was its koff?
0.000489

Look up koff for this binder: H4H12166P2 (antibody, human IgG4, V domains shown, human IgG4 Fc with S108P hinge mutation) VH: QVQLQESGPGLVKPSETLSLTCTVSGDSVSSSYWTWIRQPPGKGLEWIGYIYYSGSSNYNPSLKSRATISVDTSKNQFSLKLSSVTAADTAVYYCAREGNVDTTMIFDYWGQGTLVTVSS VL: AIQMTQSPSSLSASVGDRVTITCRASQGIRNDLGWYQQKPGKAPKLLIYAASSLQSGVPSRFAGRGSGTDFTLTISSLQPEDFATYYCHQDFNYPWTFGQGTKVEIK
0.00316
